Test system: HOP-62 complex spheroids with HUVEC/MSC, viability
Assay: Anticancer human tumor HOP-62 cell line growth inhibition [RAS];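 also: spheroids exposed to agents for seven days before readout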;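 as to viability, T/C: 100% = DMSO vehicle control viability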
Details: second compound 0.00949 µM; first compound 1 µM; stronger effect = lower value
Excerpt: RAS pathway inhibitors in Combinations in Complex Spheroids A high-throughput screen of multi-cell type tumor spheroids was designed to identify active combinations of RAS pathway inhibitors and targeted small molecules. Complex spheroids include a stromal component modeled by human endothelial cells (HUVEC) and fibroblasts modeled by human mesenchymal stem cells (MSCs). […] Compounds. […] If the clinical Cmax for an agent had not been determined, the highest concentration tested was 10 microM. […]
Known viability, T/C of a selection of compounds

COMPOUND	UNIT INFO	viability, T/C
O=C(c1ccc(F)c(F)c1Nc1ccc(I)cc1F)N1CC(O)([C@@H]2CCCCN2)C1 + CCn1c(-c2cc(N3CCN(C)CC3)cnc2C(C)OC)c2c3cc(ccc31)-c1csc(n1)CC(NC(=O)C1CC1C)C(=O)N1CCCC(N1)C(=O)OCC(C)(C)C2	%	30.9
CCN1CCN(Cc2ccc(Nc3ncc(F)c(-c4cc(F)c5nc(C)n(C(C)C)c5c4)n3)nc2)CC1 + CCn1c(-c2cccnc2C(C)OC)c2c3cc(ccc31)N1CCOC(CC(NC(=O)C(C(C)C)N(C)C(=O)C3(F)CCN(C(=O)C#CC(C)(C)N(C)C)CC3)C(=O)N3CCCC(N3)C(=O)OCC(C)(C)C2)C1	%	79.2
Cc1nc(N2CCC3(CC2)COC(C)C3N)c(CO)nc1Sc1ccnc(N)c1Cl (centres undefined) + CCn1c(-c2cc(N3CCN(C)CC3)cnc2C(C)OC)c2c3cc(ccc31)-c1csc(n1)CC(NC(=O)C1CC1C)C(=O)N1CCCC(N1)C(=O)OCC(C)(C)C2	%	31.8
CC1(O)CCCC1n1c(=O)c(C(F)F)cc2cnc(NC3CCN(S(C)(=O)=O)CC3)nc21 (centres undefined) + CCn1c(-c2cccnc2C(C)OC)c2c3cc(ccc31)N1CCOC(CC(NC(=O)C(C(C)C)N(C)C(=O)C3(F)CCN(C(=O)C#CC(C)(C)N(C)C)CC3)C(=O)N3CCCC(N3)C(=O)OCC(C)(C)C2)C1	%	60

* * *

Known viability, T/C of a selection of compounds
Test system: HOP-62 complex spheroids with HUVEC/MSC, viability
Experiment: Anticancer human tumor HOP-62 cell line growth inhibition [RAS];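 also: spheroids exposed to agents for seven days before readout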;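 as to viability, T/C: 100% = DMSO vehicle control viability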
Conditions: second compound 0.0949 µM; first compound 0.1 µM; stronger effect = lower value

COMPOUND	UNIT INFO	viability, T/C
CC(C)n1nc(-c2ccc3oc(N)nc3c2)c2c(N)ncnc21 + CCn1c(-c2cccnc2C(C)OC)c2c3cc(ccc31)N1CCOC(CC(NC(=O)C(C(C)C)N(C)C(=O)C3(F)CCN(C(=O)C#CC(C)(C)N(C)C)CC3)C(=O)N3CCCC(N3)C(=O)OCC(C)(C)C2)C1	%	30
CC(C)n1nc(-c2ccc3oc(N)nc3c2)c2c(N)ncnc21 + CCn1c(-c2cc(N3CCN(C)CC3)cnc2C(C)OC)c2c3cc(ccc31)-c1csc(n1)CC(NC(=O)C1CC1C)C(=O)N1CCCC(N1)C(=O)OCC(C)(C)C2	%	24.6
CC1(O)CCCC1n1c(=O)c(C(F)F)cc2cnc(NC3CCN(S(C)(=O)=O)CC3)nc21 (stereo not drawn) + CCn1c(-c2cc(N3CCN(C)CC3)cnc2C(C)OC)c2c3cc(ccc31)-c1csc(n1)CC(NC(=O)C1CC1C)C(=O)N1CCCC(N1)C(=O)OCC(C)(C)C2	%	33.9

* * *

System: HOP-62 complex spheroids with HUVEC/MSC, viability
Test: Anticancer human tumor HOP-62 cell line growth inhibition [RAS];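 also: spheroids exposed to agents for seven days before readout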
Settings: curve of first compound; second compound 0.000949 µM
QUANTITY MEASURED: IC50 (nM)

COMPOUND	QUANTITY MEASURED	UNIT INFO	VALUE PREFIX	ASSAY RESULT
CC(=O)OC12COC1CC(O)C1(C)C(=O)C(O)C3=C(C)C(OC(=O)C(O)C(NC(=O)OC(C)(C)C)c4ccccc4)CC(O)(C(OC(=O)c4ccccc4)C21)C3(C)C (configuration not stated) + CCn1c(-c2cccnc2C(C)OC)c2c3cc(ccc31)N1CCOC(CC(NC(=O)C(C(C)C)N(C)C(=O)C3(F)CCN(C(=O)C#CC(C)(C)N(C)C)CC3)C(=O)N3CCCC(N3)C(=O)OCC(C)(C)C2)C1	IC50	nM	<	31.6
Nc1ccn(C2OC(CO)C(O)C2(F)F)c(=O)n1 (configuration not stated) + CCn1c(-c2cc(N3CCN(C)CC3)cnc2C(C)OC)c2c3cc(ccc31)-c1csc(n1)CC(NC(=O)C1CC1C)C(=O)N1CCCC(N1)C(=O)OCC(C)(C)C2	IC50	nM	=	15.7
O=C(c1ccc(F)c(F)c1Nc1ccc(I)cc1F)N1CC(O)([C@@H]2CCCCN2)C1 + CCn1c(-c2cc(N3CCN(C)CC3)cnc2C(C)OC)c2c3cc(ccc31)-c1csc(n1)CC(NC(=O)C1CC1C)C(=O)N1CCCC(N1)C(=O)OCC(C)(C)C2	IC50	nM	=	319
NC1c2ccccc2OC12CCN(c1cnc3c(N4CCCc5ncccc54)n[nH]c3n1)CC2 (configuration not stated) + CCn1c(-c2cc(N3CCN(C)CC3)cnc2C(C)OC)c2c3cc(ccc31)-c1csc(n1)CC(NC(=O)C1CC1C)C(=O)N1CCCC(N1)C(=O)OCC(C)(C)C2	IC50	nM	=	180
Cc1nc(N2CCC3(CC2)COC(C)C3N)c(CO)nc1Sc1ccnc(N)c1Cl (configuration not stated) + CCn1c(-c2cccnc2C(C)OC)c2c3cc(ccc31)N1CCOC(CC(NC(=O)C(C(C)C)N(C)C(=O)C3(F)CCN(C(=O)C#CC(C)(C)N(C)C)CC3)C(=O)N3CCCC(N3)C(=O)OCC(C)(C)C2)C1	IC50	nM	=	2920
CCC(CC)c1cc(NC2CCC(N)C2)n2nccc2n1 (configuration not stated) + CCn1c(-c2cccnc2C(C)OC)c2c3cc(ccc31)N1CCOC(CC(NC(=O)C(C(C)C)N(C)C(=O)C3(F)CCN(C(=O)C#CC(C)(C)N(C)C)CC3)C(=O)N3CCCC(N3)C(=O)OCC(C)(C)C2)C1	IC50	nM	=	1960
CCC(CC)c1cc(NC2CCC(N)C2)n2nccc2n1 (configuration not stated) + CCn1c(-c2cc(N3CCN(C)CC3)cnc2C(C)OC)c2c3cc(ccc31)-c1csc(n1)CC(NC(=O)C1CC1C)C(=O)N1CCCC(N1)C(=O)OCC(C)(C)C2	IC50	nM	=	2040

* * *

Test system: HOP-62 complex spheroids with HUVEC/MSC, viability
Experiment: Anticancer human tumor HOP-62 cell line growth inhibition [RAS]; active means viability on the fitted dose curve at most 10% of control; inactive means the rest;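 also: spheroids exposed to agents for seven days before readout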
Settings: second compound 0.1 µM; first compound 0.316 µM
Labels: Y = active, N = inactive

MOLECULE	EXPERIMENTAL SYSTEM	ASSIGNED CATEGORY
O=C(c1ccc(F)c(F)c1Nc1ccc(I)cc1F)N1CC(O)([C@@H]2CCCCN2)C1 + C=CC(=O)N1CCN(c2nc(OCC3CCCN3C)nc3c(F)c(-c4nc(N)cc(C)c4C(F)(F)F)c(Cl)cc23)C(C)C1	HOP-62 complex spheroids with HUVEC/MSC, viability	N
CCC(CC)c1cc(NC2CCC(N)C2)n2nccc2n1 (stereo not given) + C#Cc1c(F)ccc2cc(O)cc(-c3ncc4c(N5CC6CCC(C5)N6)nc(OCC56CCCN5CC(F)C6)nc4c3F)c12	HOP-62 complex spheroids with HUVEC/MSC, viability	N
Cc1nc(N2CCC3(CC2)COC(C)C3N)c(CO)nc1Sc1ccnc(N)c1Cl (stereo not given) + C#Cc1c(F)ccc2cc(O)cc(-c3ncc4c(N5CC6CCC(C5)N6)nc(OCC56CCCN5CC(F)C6)nc4c3F)c12	HOP-62 complex spheroids with HUVEC/MSC, viability	N
Nc1ccn(C2OC(CO)C(O)C2(F)F)c(=O)n1 (stereo not given) + C#Cc1c(F)ccc2cc(O)cc(-c3ncc4c(N5CC6CCC(C5)N6)nc(OCC56CCCN5CC(F)C6)nc4c3F)c12	HOP-62 complex spheroids with HUVEC/MSC, viability	Y
CCC(CC)c1cc(NC2CCC(N)C2)n2nccc2n1 (stereo not given) + C=CC(=O)N1CCN(c2nc(OCC3CCCN3C)nc3c(F)c(-c4nc(N)cc(C)c4C(F)(F)F)c(Cl)cc23)C(C)C1	HOP-62 complex spheroids with HUVEC/MSC, viability	N
Cc1nc(N2CCC3(CC2)COC(C)C3N)c(CO)nc1Sc1ccnc(N)c1Cl (stereo not given) + C=CC(=O)N1CCN(c2nc(OCC3CCCN3C)nc3c(F)c(-c4nc(N)cc(C)c4C(F)(F)F)c(Cl)cc23)C(C)C1	HOP-62 complex spheroids with HUVEC/MSC, viability	N
C=CC(=O)Nc1cc(Nc2nccc(-c3cn(C)c4ccccc34)n2)c(OC)cc1N(C)CCN(C)C + C=CC(=O)N1CCN(c2nc(OCC3CCCN3C)nc3c(F)c(-c4nc(N)cc(C)c4C(F)(F)F)c(Cl)cc23)C(C)C1	HOP-62 complex spheroids with HUVEC/MSC, viability	N
C[C@@H](NC(=O)c1ncnc(N)c1Cl)c1ncc(C(=O)Nc2cc(C(F)(F)F)c(Cl)cn2)s1 + C=CC(=O)N1CCN(c2nc(OCC3CCCN3C)nc3c(F)c(-c4nc(N)cc(C)c4C(F)(F)F)c(Cl)cc23)C(C)C1	HOP-62 complex spheroids with HUVEC/MSC, viability	N
Nc1ccn(C2OC(CO)C(O)C2(F)F)c(=O)n1 (stereo not given) + C=CC(=O)N1CCN(c2nc(OCC3CCCN3C)nc3c(F)c(-c4nc(N)cc(C)c4C(F)(F)F)c(Cl)cc23)C(C)C1	HOP-62 complex spheroids with HUVEC/MSC, viability	Y
CC(C)NCC(C(=O)N1CCN(c2ncnc3c2C(C)CC3O)CC1)c1ccc(Cl)cc1 (stereo not given) + C#Cc1c(F)ccc2cc(O)cc(-c3ncc4c(N5CC6CCC(C5)N6)nc(OCC56CCCN5CC(F)C6)nc4c3F)c12	HOP-62 complex spheroids with HUVEC/MSC, viability	N
